# Test system: Escherichia coli IAI1
# ASSAY COMMENT: fold change of Putrescine concentration vs plate DMSO controls (fold change (ratio)); higher = more amine produced, active = hit call of the paper (significant change in both replicates, either direction)
# CONDITION LABEL: incubation time: 27 h, anaerobic, 37 °C
Structures can show the parent of a compound that is named as a salt.
Give t when the value for fold change of Putrescine concentration is at least 1. Give f when it is less.

| COMPOUND | ASSIGNED CLASS |
| --- | --- |
| CNCCC(Oc1ccc(C(F)(F)F)cc1)c1ccccc1 (configuration not stated) [Fluoxetine hydrochloride] (20 µM) | f |
| CC(=O)OCC(=O)[C@@]1(OC(C)=O)[C@@H](C)C[C@H]2[C@@H]3C[C@H](F)C4=CC(=O)C=C[C@]4(C)[C@@]3(F)[C@@H](O)C[C@@]21C [Diflorasone Diacetate] (20 µM) | f |
| OCCN1CCN(CCCN2c3ccccc3C=Cc3ccccc32)CC1 [Opipramol dihydrochloride] (20 µM) | f |
| CN1CCN(C2Cc3ccccc3Sc3ccc(Cl)cc32)CC1 (configuration not stated) [Octoclothepin maleate salt] (20 µM) | t |
| CC(C)(C)NCC(O)c1ccc(O)c(CO)c1 (configuration not stated) [Salbutamol] (20 µM) | t |
| CC(N)(Cc1ccc(O)c(O)c1)C(=O)O (configuration not stated) [(L) Methyldopa] (20 µM) | f |
| CC1=NN(c2ccccc2)C(=O)C1 [Edaravone] (20 µM) | t |
| CC(C)NCC(O)c1cc(O)cc(O)c1 (configuration not stated) [Metaproterenol sulfate] (20 µM) | t |
| CCC(C)(CN(C)C)OC(=O)c1ccccc1 (configuration not stated) [Amyleine hydrochloride] (20 µM) | t |

###

This section presents compounds with their documented fold change of 2-Phenylethylamine concentration values.
# System: Ruminococcus gnavus DSM 108212
# ASSAY COMMENT: fold change of 2-Phenylethylamine concentration vs plate DMSO controls (fold change (ratio)); higher = more amine produced, active = hit call of the paper (significant change in both replicates, either direction)
# CONDITION LABEL: incubation time: 27 h, anaerobic, 37 °C
Structures can show the parent of a compound that is named as a salt.
PROPERTY: fold change of 2-Phenylethylamine concentration

| COMPOUND | EXPERIMENTAL TARGET | ASSAY VALUE |
| --- | --- | --- |
| CCCCC(O)c1ccccc1 (stereo unspecified) [Fenipentol] (20 µM) | Ruminococcus gnavus DSM 108212 | 1.04 (inactive) |
| CCN(CC)CCNC(=O)c1cc(S(C)(=O)=O)ccc1OC [Tiapride hydrochloride] (20 µM) | Ruminococcus gnavus DSM 108212 | 0.956 (inactive) |
| COc1cccc(OC)c1C(=O)N[C@@H]1C(=O)N2[C@@H]1SC(C)(C)[C@@H]2C(=O)O [Methicillin sodium] (20 µM) | Ruminococcus gnavus DSM 108212 | 0.721 (inactive) |
| N[C@@H](C(=O)N[C@@H]1C(=O)N2C(C(=O)O)=C(Cl)CS[C@H]12)c1ccccc1 [Cefaclor hydrate] (20 µM) | Ruminococcus gnavus DSM 108212 | 0.859 (inactive) |
| Cc1cccc(C)c1OCC(=O)N[C@@H](Cc1ccccc1)[C@@H](O)C[C@H](Cc1ccccc1)NC(=O)[C@H](C(C)C)N1CCCNC1=O [Lopinavir] (20 µM) | Ruminococcus gnavus DSM 108212 | 0.997 (inactive) |
| CN1CCN(C(c2ccccc2)c2ccccc2)CC1 [Cyclizine hydrochloride] (20 µM) | Ruminococcus gnavus DSM 108212 | 1.03 (inactive) |
| Nc1ncnc2c1ncn2[C@@H]1O[C@H](COP(=O)(O)O)[C@@H](O)[C@H]1O [5'-Adenylic acid] (50 µM) | Ruminococcus gnavus DSM 108212 | 0.989 (inactive) |
| Oc1c(Cl)cc(Cl)cc1Sc1cc(Cl)cc(Cl)c1O [Bithionol] (20 µM) | Ruminococcus gnavus DSM 108212 | 0.0838 (active) |
| O=P(O)(O)C(Cl)(Cl)P(=O)(O)O [Clodronate disodium] (20 µM) | Ruminococcus gnavus DSM 108212 | 0.981 (inactive) |
| CC1=C(C(=O)O)N2C(=O)[C@@H](NC(=O)[C@H](N)c3ccccc3)[C@H]2SC1 [Cephalexin monohydrate] (20 µM) | Ruminococcus gnavus DSM 108212 | 1.15 (inactive) |
| Cc1nn(C)c(Oc2ccccc2)c1/C=N/OCc1ccc(C(=O)OC(C)(C)C)cc1 (20 µM) | Ruminococcus gnavus DSM 108212 | 0.974 (inactive) |
| [S] (20 µM) | Ruminococcus gnavus DSM 108212 | 1.02 (inactive) |
| OCCN(CCO)c1nc(N2CCCCC2)c2nc(N(CCO)CCO)nc(N3CCCCC3)c2n1 [Dipyridamole] (20 µM) | Ruminococcus gnavus DSM 108212 | 0.994 (inactive) |
| COc1ccc2c(c1)N(C[C@H](C)CN(C)C)c1ccccc1S2 [Methotrimeprazine maleate salt] (20 µM) | Ruminococcus gnavus DSM 108212 | 1.11 (inactive) |
| CN(C)C(=N)NC(=N)N [Metformin hydrochloride] (20 µM) | Ruminococcus gnavus DSM 108212 | 1.08 (inactive) |
| CC1(C)[C@@H](OC(=O)CCC(=O)O)CC[C@]2(C)[C@H]3C(=O)C=C4[C@@H]5C[C@@](C)(C(=O)O)CC[C@]5(C)CC[C@@]4(C)[C@]3(C)CC[C@@H]12 [Carbenoxolone disodium salt] (20 µM) | Ruminococcus gnavus DSM 108212 | 1.07 (inactive) |
| Nc1ccc(S(=O)(=O)Nc2ccccn2)cc1 [Sulfapyridine] (20 µM) | Ruminococcus gnavus DSM 108212 | 1.03 (inactive) |
| CC(C)(C)CC(C)(C)c1ccc(OCCOCC[N+](C)(C)Cc2ccccc2)cc1 [Benzethonium chloride] (20 µM) | Ruminococcus gnavus DSM 108212 | 0.895 (inactive) |
| CC1CCc2c(N3CCC(O)CC3)c(F)cc3c(=O)c(C(=O)O)cn1c23 (stereo unspecified) [Nadifloxacin] (20 µM) | Ruminococcus gnavus DSM 108212 | 0.362 (active) |
| OC(CCN1CCCC1)(c1ccccc1)C1CCCCC1 (stereo unspecified) [Procyclidine hydrochloride] (20 µM) | Ruminococcus gnavus DSM 108212 | 0.912 (inactive) |
| CC1c2cccc(O)c2C(O)=C2C(=O)C3(O)C(O)=C(C(N)=O)C(=O)C(N(C)C)C3C(O)C21 (stereo unspecified) [Doxycycline hydrochloride] (20 µM) | Ruminococcus gnavus DSM 108212 | 0.288 (active) |
| CC(=O)c1cc2cccc(OCC(O)CNC(C)C)c2o1 (stereo unspecified) [Befunolol] (20 µM) | Ruminococcus gnavus DSM 108212 | 1.06 (inactive) |
| CN(CCCCCCCCCCN(C)C(=O)Oc1cccc([N+](C)(C)C)c1)C(=O)Oc1cccc([N+](C)(C)C)c1 [Demecarium bromide] (20 µM) | Ruminococcus gnavus DSM 108212 | 1.06 (inactive) |
| CC(C)(Oc1ccc(C2CC2(Cl)Cl)cc1)C(=O)O (stereo unspecified) [Ciprofibrate] (20 µM) | Ruminococcus gnavus DSM 108212 | 0.949 (inactive) |
| CN1CC2c3ccccc3Oc3ccc(Cl)cc3C2C1 (stereo unspecified) [Asenapine maleate] (20 µM) | Ruminococcus gnavus DSM 108212 | 0.917 (inactive) |
| C[C@@]12CC[C@@H]3[C@@](CC[C@H]4[C@@]3(C)CCC[C@@]4(C)C(=O)O)(CC1=O)C2 [Iso-Steviol] (50 µM) | Ruminococcus gnavus DSM 108212 | 0.996 (inactive) |
| CNCC(O)c1ccc(OC(=O)C(C)(C)C)c(OC(=O)C(C)(C)C)c1 (stereo unspecified) [Dipivefrin hydrochloride] (20 µM) | Ruminococcus gnavus DSM 108212 | 1.16 (inactive) |
| Cn1c(=O)c2c(ncn2C)n(C)c1=O [Caffeine] (20 µM) | Ruminococcus gnavus DSM 108212 | 1.06 (inactive) |
| CN1[C@@H]2CC[C@H]1C[C@@H](OC(c1ccccc1)c1ccccc1)C2 [Benztropine mesylate] (20 µM) | Ruminococcus gnavus DSM 108212 | 1 (inactive) |
| CCN(CCO)CCCC(C)Nc1ccnc2cc(Cl)ccc12 (stereo unspecified) [Hydroxychloroquine sulfate] (20 µM) | Ruminococcus gnavus DSM 108212 | 1.02 (inactive) |
| O=C1OCCN1/N=C/c1ccc([N+](=O)[O-])o1 [Furazolidone] (20 µM) | Ruminococcus gnavus DSM 108212 | 1.11 (inactive) |
